Listed below: inhibition at 0.1 µM values for each entry.
- Target Or Test System: AR protein (Homo sapiens)
- Construct: degradation activity of the compounds disclosed in the present disclosure on AR protein in VCaP cells; host or cells: VCaP
- Sequence (P10275 whole entry): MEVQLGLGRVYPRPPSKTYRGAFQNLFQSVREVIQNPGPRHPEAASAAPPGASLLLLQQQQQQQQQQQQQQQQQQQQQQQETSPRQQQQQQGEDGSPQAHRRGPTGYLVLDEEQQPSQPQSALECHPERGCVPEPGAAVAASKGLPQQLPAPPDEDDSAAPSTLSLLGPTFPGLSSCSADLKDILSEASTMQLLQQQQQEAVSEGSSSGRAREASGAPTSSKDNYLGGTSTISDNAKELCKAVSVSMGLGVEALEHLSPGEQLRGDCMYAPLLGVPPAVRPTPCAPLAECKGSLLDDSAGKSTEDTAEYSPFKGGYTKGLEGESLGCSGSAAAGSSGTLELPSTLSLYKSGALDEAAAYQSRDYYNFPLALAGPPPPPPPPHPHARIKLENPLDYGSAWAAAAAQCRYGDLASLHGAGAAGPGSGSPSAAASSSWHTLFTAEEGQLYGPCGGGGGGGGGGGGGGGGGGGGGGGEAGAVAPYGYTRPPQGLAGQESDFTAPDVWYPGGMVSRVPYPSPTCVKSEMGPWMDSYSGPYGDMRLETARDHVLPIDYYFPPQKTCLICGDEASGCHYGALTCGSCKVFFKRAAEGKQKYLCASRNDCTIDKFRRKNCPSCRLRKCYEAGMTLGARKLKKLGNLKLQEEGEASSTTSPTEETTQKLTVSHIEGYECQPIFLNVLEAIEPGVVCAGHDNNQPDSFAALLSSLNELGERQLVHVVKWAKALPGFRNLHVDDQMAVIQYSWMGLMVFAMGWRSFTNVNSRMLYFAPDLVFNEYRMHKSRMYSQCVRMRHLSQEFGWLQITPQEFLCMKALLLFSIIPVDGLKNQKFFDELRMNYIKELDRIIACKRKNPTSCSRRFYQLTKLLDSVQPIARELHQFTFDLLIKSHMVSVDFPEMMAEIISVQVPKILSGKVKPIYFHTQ
- Assay Info: Degradation of AR protein in VCaP cells (Western blot)
- Format: cell-based
- Details: compound at 100 nM, 8 hours, read-out: Degradation rate of the AR protein in VCaP cells, 100 nM (%)
Property Measured: inhibition at 0.1 µM (%)

- COC1(CN2CC3(CCc4ccc5c(c4O3)C(=O)N(C3CCC(=O)NC3=O)C5)C2)CCN(c2ccc(C(=O)N[C@H]3CC[C@H](Oc4ccc(C#N)c(Cl)c4)CC3)nn2)CC1 (some centres unmarked): 7
- COc1cc(O[C@H]2C(C)(C)[C@H](NC(=O)c3ccc(N4CCC(C)(CN5CCC6(CCc7cc8c(cc7O6)CN(C6CCC(=O)NC6=O)C8=O)CC5)CC4)cc3)C2(C)C)ccc1C#N (some centres unmarked): 60
- COc1cc(O[C@H]2C(C)(C)[C@H](NC(=O)c3ccc(N4CCC(C)(CN5CC6(CCc7ccc8c(c7O6)C(=O)N(C6CCC(=O)NC6=O)C8=O)C5)CC4)cc3)C2(C)C)ccc1C#N (some centres unmarked): 6
- N#Cc1ccc(O[C@H]2CC[C@H](NC(=O)c3cnc(N4CCC5(CC4)COc4c5ccc5c4CN(C4CCC(=O)NC4=O)C5=O)nc3)CC2)cc1Cl (some centres unmarked): 32
- COc1cc(O[C@H]2C(C)(C)[C@H](NC(=O)c3ccc(N4CCC(F)(CN5CCC6(CC5)COc5cc7c(cc5C6)C(=O)N(C5CCC(=O)NC5=O)C7=O)CC4)cc3)C2(C)C)ccc1C#N (some centres unmarked): -5
